Cited source for all entries: patent US20190284293A1

# target-or-test-system: T1, CD32a-H131 (FcgRIIa-H131) (Homo sapiens, UniProt P12318)
# T1 sequence (P12318 34-217 limits assumed): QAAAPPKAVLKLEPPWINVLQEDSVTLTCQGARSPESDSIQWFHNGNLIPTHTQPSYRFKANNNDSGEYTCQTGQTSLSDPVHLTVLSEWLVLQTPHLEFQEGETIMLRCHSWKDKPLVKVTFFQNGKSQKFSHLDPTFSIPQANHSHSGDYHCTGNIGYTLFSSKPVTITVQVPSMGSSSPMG
# test-name: SPR, antibody binding to anti-his Fab captured FcgR-his (% Rmax)
# conditions-used: 1 μM antibody

[
  {
    "molecule": "mAb8-IgG2.5 (protein, left off: another chain or arm of the molecule) constant: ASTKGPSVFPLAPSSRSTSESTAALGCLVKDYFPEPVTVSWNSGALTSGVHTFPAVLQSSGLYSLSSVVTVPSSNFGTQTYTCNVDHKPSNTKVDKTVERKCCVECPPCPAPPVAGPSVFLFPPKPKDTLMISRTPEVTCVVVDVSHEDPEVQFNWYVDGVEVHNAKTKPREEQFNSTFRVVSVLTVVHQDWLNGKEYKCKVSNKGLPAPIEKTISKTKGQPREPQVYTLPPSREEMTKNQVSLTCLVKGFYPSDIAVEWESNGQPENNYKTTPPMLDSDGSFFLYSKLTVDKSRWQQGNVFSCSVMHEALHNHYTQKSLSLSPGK",
    "% Rmax hCD32a-H131": "59%"
  },
  {
    "molecule": "mAb8-IgG2.5G1-AY-V27 (protein, left off: another chain or arm of the molecule) constant: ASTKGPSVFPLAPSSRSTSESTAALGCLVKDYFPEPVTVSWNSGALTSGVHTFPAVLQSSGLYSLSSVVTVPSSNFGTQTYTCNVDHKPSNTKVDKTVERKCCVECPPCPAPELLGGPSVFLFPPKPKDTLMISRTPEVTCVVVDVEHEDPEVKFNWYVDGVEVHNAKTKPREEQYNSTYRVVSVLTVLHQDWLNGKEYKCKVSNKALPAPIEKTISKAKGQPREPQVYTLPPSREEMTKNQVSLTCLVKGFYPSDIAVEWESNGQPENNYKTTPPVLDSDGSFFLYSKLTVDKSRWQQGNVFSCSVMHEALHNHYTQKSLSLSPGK",
    "% Rmax hCD32a-H131": "76%"
  }
]
